Taken from patent US10676479B2.

pIC50: −log10 of the molar value.
Record type: pIC50 measurement. Applies to: EED (1-441)-His protein (Homo sapiens (Human), UniProt O75530)
Property: pIC50

P. CS(=O)(=O)Nc1ccc(-c2cnc(NCc3c(F)ccc4c3CCO4)n3cncc23)cc1
Q. CCOC(=O)c1ncn2c(NCc3c(F)ccc4c3CCO4)ncc(Br)c12
R. Cc1ncc(-c2cnc(NCc3c(F)ccc4c3CCO4)n3cnc(S(C)(=O)=O)c23)c(C)n1
Problem: Provide the items ranked by increasing pIC50. Labels, requested order.
Solution: P, Q, R
(P: 7.43, Q: 8.07, R: 8.44)

----------
# Test target: EED (1-441)-His protein (Homo sapiens (Human), UniProt O75530)
# Sequence (O75530 whole entry): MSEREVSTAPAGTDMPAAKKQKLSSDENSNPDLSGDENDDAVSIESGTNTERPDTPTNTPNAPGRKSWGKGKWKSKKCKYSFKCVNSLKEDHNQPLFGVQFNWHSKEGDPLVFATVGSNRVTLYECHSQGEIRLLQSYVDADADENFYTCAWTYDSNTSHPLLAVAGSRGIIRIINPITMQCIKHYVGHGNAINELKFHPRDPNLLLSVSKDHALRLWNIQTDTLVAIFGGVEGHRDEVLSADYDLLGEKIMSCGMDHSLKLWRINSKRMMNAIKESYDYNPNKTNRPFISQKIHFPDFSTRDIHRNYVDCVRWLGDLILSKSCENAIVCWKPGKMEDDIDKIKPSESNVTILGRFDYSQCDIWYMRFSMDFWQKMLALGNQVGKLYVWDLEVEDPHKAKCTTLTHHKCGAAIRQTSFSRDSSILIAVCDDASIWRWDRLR
Property: IC50 (nM)

Please review the entries below; each comes with its answer.
compound="Cc1ncccc1-c1cnc(NCc2c(F)ccc3c2CCO3)n2cnc(C#C[Si](C)(C)C)c12 [Example 116]" readout_number=8.3
compound="Cc1ncccc1-c1cnc(NCc2c(F)ccc3c2CCO3)n2cnc(C#N)c12 [Example 69]" readout_number=9
compound="CS(=O)(=O)c1cccc(-c2cnc(NCc3c(F)ccc4c3CCO4)n3cncc23)c1 [Example 27]" readout_number=24.1
compound="Fc1ccc2c(c1CNc1ncc(-c3cccnc3F)c3cncn13)CCO2 [Example 21]" readout_number=19.5
compound="Cc1ncccc1-c1cnc(NCc2c(F)ccc3c2CCO3)n2cnc(-c3ccccc3)c12 [Example 111]" readout_number=7.6
compound="Cc1ncncc1-c1cnc(NCc2c(F)ccc3c2CCO3)n2cncc12 [Example 47]" readout_number=8.1

A. Cc1nc(C(F)F)ccc1-c1cnc(NCc2c(F)ccc3c2CCO3)n2cncc12 [Example 57]
B. CS(=O)(=O)c1ncn2c(NCc3c(F)ccc4c3CCO4)ncc(Br)c12 [Example 103]
C. Fc1ccc2c(c1CNc1ncc(-c3cccnc3)c3cncn13)CCO2 [Example 28]
D. CN(C)Cc1ccc(-c2cnc(NCc3cccc4occc34)n3cncc23)cc1 [Example 64]
Problem: Thanks in advance: please rank these 4 entries by IC50, highest to lowest. Labels, requested order.
Solution: D, C, A, B
(D: 55.4 nM, C: 19.9 nM, A: 7.5 nM, B: 5 nM)

----------
# Test target: wild type PRC2 (wtPRC2) complex (Homo sapiens (Human))
# Procedure details: EED LC-MS assay
# Assay type: biochemical
# Protocol conditions: EED LC-MS Qualified assay; read-out: (b) IC50
pIC50: −log10 of the molar value.
Property: pIC50

Please review the entries below; each comes with its answer.
compound_string=Cc1cc(S(C)(=O)=O)ccc1-c1cnc(NCc2c(F)ccc3c2CCO3)n2cncc12 readout_number=8.07
compound_string=CCS(=O)(=O)c1ncn2c(NCc3c(F)ccc4c3CCO4)ncc(-c3cnc(C)nc3C)c12 readout_number=7.98
compound_string=Cc1ncc(-c2cnc(NCc3c(F)ccc4c3CCO4)n3cncc23)cn1 readout_number=7.79
compound_string=CS(=O)(=O)c1ccc(-c2cnc(NCc3c(F)ccc4c3CCO4)n3cncc23)cn1 readout_number=8.01

a. CN(C)Cc1ccc(-c2cnc(NCc3c(F)ccc4c3CCO4)n3cncc23)cc1
b. Cc1ncc(-c2cnc(NCc3c(F)ccc4c3CCO4)n3cncc23)c(C)n1
c. COc1cccc(F)c1CNc1ncc(-c2ccc(CN(C)C)cc2)c2cncn12
d. CS(=O)(=O)c1ncn2c(NCc3c(F)ccc4c3CCO4)ncc(-c3cccnc3C(F)F)c12
Problem: Thanks in advance: please rank these 4 entries by pIC50, highest to lowest. Labels, requested order.
Solution: d, b, a, c

----------
# Test target: wild type PRC2 (wtPRC2) complex (Homo sapiens (Human), UniProt O75530)
# Sequence (Q15910 whole entry partner, one chain of several): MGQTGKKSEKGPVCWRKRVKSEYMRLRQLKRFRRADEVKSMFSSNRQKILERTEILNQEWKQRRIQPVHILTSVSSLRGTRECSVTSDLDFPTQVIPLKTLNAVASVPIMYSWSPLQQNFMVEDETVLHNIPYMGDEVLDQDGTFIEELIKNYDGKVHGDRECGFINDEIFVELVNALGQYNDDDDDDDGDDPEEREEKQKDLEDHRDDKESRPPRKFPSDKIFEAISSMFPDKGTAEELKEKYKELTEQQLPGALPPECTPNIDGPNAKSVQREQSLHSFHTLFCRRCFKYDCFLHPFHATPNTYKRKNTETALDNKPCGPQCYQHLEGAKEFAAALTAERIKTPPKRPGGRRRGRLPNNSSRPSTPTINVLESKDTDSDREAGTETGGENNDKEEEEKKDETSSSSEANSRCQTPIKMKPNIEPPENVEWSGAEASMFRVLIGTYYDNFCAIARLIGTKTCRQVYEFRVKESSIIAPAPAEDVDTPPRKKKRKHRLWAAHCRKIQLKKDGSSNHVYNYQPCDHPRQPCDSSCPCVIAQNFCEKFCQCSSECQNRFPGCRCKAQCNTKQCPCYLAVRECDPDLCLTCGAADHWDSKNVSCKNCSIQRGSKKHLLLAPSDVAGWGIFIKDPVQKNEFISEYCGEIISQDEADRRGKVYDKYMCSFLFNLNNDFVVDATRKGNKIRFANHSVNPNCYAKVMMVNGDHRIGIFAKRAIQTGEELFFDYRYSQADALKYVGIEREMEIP
# Sequence (Q15022 whole entry partner, one chain of several): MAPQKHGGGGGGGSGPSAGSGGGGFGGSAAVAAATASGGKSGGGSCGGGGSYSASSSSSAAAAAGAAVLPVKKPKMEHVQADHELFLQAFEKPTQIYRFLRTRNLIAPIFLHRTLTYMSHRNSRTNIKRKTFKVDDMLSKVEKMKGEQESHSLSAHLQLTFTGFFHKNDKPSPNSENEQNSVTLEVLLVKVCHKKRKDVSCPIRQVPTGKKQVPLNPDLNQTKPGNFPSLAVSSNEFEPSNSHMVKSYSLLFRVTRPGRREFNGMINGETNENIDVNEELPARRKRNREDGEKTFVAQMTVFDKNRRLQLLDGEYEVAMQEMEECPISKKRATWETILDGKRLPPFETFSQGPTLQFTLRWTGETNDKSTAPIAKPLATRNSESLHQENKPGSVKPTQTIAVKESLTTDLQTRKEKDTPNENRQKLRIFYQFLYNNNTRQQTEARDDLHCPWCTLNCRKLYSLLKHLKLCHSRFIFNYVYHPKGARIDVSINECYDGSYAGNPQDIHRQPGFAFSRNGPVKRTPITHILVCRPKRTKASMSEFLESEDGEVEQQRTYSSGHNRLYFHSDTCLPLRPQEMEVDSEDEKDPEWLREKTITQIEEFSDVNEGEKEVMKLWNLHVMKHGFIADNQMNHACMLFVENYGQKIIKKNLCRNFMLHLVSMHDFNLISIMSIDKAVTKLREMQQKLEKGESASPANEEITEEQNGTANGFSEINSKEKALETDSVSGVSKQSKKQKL
# Procedure details: EED LC-MS assay
# Type: biochemical
# Protocol conditions: EED LC-MS Qualified assay; read-out: (b) IC50
Property: IC50 (µM)

Please review the entries below; each comes with its answer.
compound="CCOC(=O)c1ncn2c(NCc3cc(OC)c(F)cc3F)ncc(-c3ccc(S(=O)(=O)N(C)C)cc3)c12 [Example 97]" test_target="wild type PRC2 (wtPRC2) complex (Homo sapiens (Human), UniProt O75530)" unit=µM readout_number=0.0167
compound="Cc1ncncc1-c1cnc(NCc2c(F)ccc3c2CCO3)n2cncc12 [Example 47]" test_target="wild type PRC2 (wtPRC2) complex (Homo sapiens (Human), UniProt O75530)" unit=µM readout_number=0.0143
compound="CN1CCN(c2ccc(-c3cnc(NCc4c(F)ccc5c4CCO5)n4cncc34)cn2)CC1 [Example 40]" test_target="wild type PRC2 (wtPRC2) complex (Homo sapiens (Human), UniProt O75530)" unit=µM readout_number=0.0282
compound="Cc1ncccc1-c1cnc(NCc2c(F)ccc3c2CCO3)n2cnc(C(=O)N(C)C)c12 [Example 105]" test_target="wild type PRC2 (wtPRC2) complex (Homo sapiens (Human), UniProt O75530)" unit=µM readout_number=0.0304
compound="CN(C)Cc1ccc(-c2cnc(NCc3cccc4occc34)n3cncc23)cc1 [Example 64]" test_target="wild type PRC2 (wtPRC2) complex (Homo sapiens (Human), UniProt O75530)" unit=µM readout_number=0.0547

1. CCN1CCN(c2ccc(-c3cnc(NCc4c(F)ccc5c4CCO5)n4cnc(C#N)c34)cn2)CC1 [Example 81]
2. Cc1nn(C)c(C)c1-c1cnc(NCc2c(F)ccc3c2CCO3)n2cncc12 [Example 46]
Problem: Field: entry with larger IC50 (options 1 / 2 ). Lab log: write the label of the selected item as the result.
Solution: 1

----------
# Test target: wild type PRC2 (wtPRC2) complex (Homo sapiens (Human), UniProt O75530)
# Procedure details: EED LC-MS assay
# Type: biochemical
Property: pIC50
Lab note — pIC50 values are minus log10 of concentrations in M.

Problem: What measured pIC50 goes with Cc1ncccc1-c1cnc(NCc2c(F)ccc3c2CCO3)n2cnc(C#C[Si](C)(C)C)c12 [Example 116] ?
Solution: 8.06

----------
Record type: pIC50 measurement. Applies to: EED (1-441)-His protein (Homo sapiens (Human))
pIC50: −log10 of the molar value.
Property: pIC50

Please review the entries below; each comes with its answer.
compound_string=N#Cc1ncn2c(NCc3c(F)ccc4c3CCO4)ncc(-c3cccnc3)c12 test_target="EED (1-441)-His protein (Homo sapiens (Human))" readout_number=8.23
compound_string=Cc1ncc(-c2cnc(NCc3c(F)ccc4c3CCO4)n3cnc(Cl)c23)c(C)n1 test_target="EED (1-441)-His protein (Homo sapiens (Human))" readout_number=7.98

a. Cc1ccc(-c2cnc(NCc3c(F)ccc4c3CCO4)n3cncc23)c(C)n1
b. Fc1ccc2c(c1CNc1ncc(-c3cccnc3C(F)F)c3cncn13)CCO2
Problem: For the pair a and b , which member has the lower pIC50 number? Lab log: write the label of the selected item as the result.
Solution: a

1. Cc1nc(S(C)(=O)=O)ccc1-c1cnc(NCc2c(F)ccc3c2CCO3)n2cncc12
2. N#Cc1ncn2c(NCc3c(F)ccc4c3CCO4)ncc(-c3cccnc3CO)c12
Problem: Field: entry with larger pIC50 (options 1 / 2 ). Lab log: write the label of the selected item as the result.
Solution: 2
(2: 8.29, 1: 8.03)

----------
pIC50: −log10 of the molar value.
Record type: pIC50 measurement. Applies to: EED (1-441)-His protein (Homo sapiens (Human), UniProt O75530)
Property: pIC50

compound="CCOC(=O)c1ncn2c(NCc3cc(OC)c(F)cc3F)ncc(-c3cccnc3C)c12 [Example 96]" property=pIC50 readout_number=7.80

A. N#Cc1ncn2c(NCc3c(F)ccc4c3CCO4)ncc(-n3ccnc3)c12 [Example 119]
B. CN1CCc2ccc(-c3cnc(NCc4c(F)ccc5c4CCO5)n4cncc34)cc2C1 [Example 26]
C. CCC(O)c1ncc(-c2cnc(NCc3c(F)ccc4c3CCO4)n3cnc(C#N)c23)c(C)n1 (stereo not shown) [Example 80]
Problem: Thanks in advance: please rank these 3 entries by pIC50, highest to lowest. Labels, requested order.
Solution: C, A, B
(C: 7.98, A: 7.74, B: 7.30)

----------
# Test target: EED (1-441)-His protein (Homo sapiens (Human))
Property: IC50 (nM)

Please review the entries below; each comes with its answer.
compound=CCOC(=O)c1ncn2c(NCc3cc(OC)c(F)cc3F)ncc(-c3ccc(S(=O)(=O)N(C)C)cc3)c12 unit=nM readout_number=19.6
compound=Cc1ccc(-c2cnc(NCc3c(F)ccc4c3CCO4)n3cnc(C#N)c23)cn1 unit=nM readout_number=10.8
compound=CCOC(=O)c1ncn2c(NCc3c(F)ccc4c3CCO4)ncc(-c3cccnc3C)c12 unit=nM readout_number=5.5
compound=Cc1ncc(-c2cnc(NCc3c(F)ccc4c3CCO4)n3cncc23)cn1 unit=nM readout_number=7.1
compound=CN(C)Cc1ccc(-c2cnc(NCc3c(F)ccc4c3CCO4)n3cncc23)cc1 unit=nM readout_number=12.6

P. CCOC(=O)c1ncn2c(NCc3c(F)ccc4c3CCO4)ncc(-c3ccc(S(C)(=O)=O)cc3)c12
Q. Cc1nc(OC(C)C)ncc1-c1cnc(NCc2c(F)ccc3c2CCO3)n2cncc12
Problem: For the pair P and Q , which member has the lower IC50 number? Lab log: write the label of the selected item as the result.
Solution: P
(P: 5.4 nM, Q: 8.3 nM)

P. Cc1ccc(-c2ncn3c(NCc4c(F)ccc5c4CCO5)ncc(-c4cnc(C)nc4C)c23)c(C)n1
Q. CS(=O)(=O)c1ncn2c(NCc3c(F)ccc4c3CCO4)ncc(-c3cccnc3)c12
R. CS(=O)(=O)c1ccc(-c2cnc(NCc3c(F)ccc4c3CCO4)n3cnc(-c4ncco4)c23)cc1
S. Fc1ccc2c(c1CNc1ncc(-c3ccc(CN4CCC4)cc3)c3cncn13)CCO2
Problem: Ascending sort, IC50. Labels, requested order.
Solution: S, R, Q, P
(S: 3.3 nM, R: 4.8 nM, Q: 6.9 nM, P: 15.2 nM)

P. CN(C)c1ccc(-c2cnc(NCc3c(F)ccc4c3CCO4)n3cncc23)cn1
Q. N#Cc1ncn2c(NCc3c(F)ccc4c3CCO4)ncc(-c3ccc(N4CCOCC4)nc3)c12
Problem: For the pair P and Q , which member has the lower IC50 number? Lab log: write the label of the selected item as the result.
Solution: Q
(Q: 8.3 nM, P: 41.2 nM)
